# System: CCRF-CEM leukemia
# Procedure text: NCI tumour cell line growth inhibition, 48 h; in the data active means GI50 below about 0.43 µM; inactive means the rest
Can you answer with just one of these options? TRUE = active, FALSE = inactive

# example entries with known answers
Compound	Assigned class
CCOC(=O)/C=C(\C(=O)OCC)n1cc(Cl)c(=O)n(CC(=O)OCC)c1=O	FALSE
O=C(/C=C1\C(=O)N(Cc2ccccc2)c2ccccc21)c1ccc(OCCN2CCCCC2)cc1	FALSE
CCCCCCCCCCCCCC[n+]1ccc(C(N)=O)cc1	FALSE
CC(C)C(=O)c1c(C(F)(F)F)n([O-])c2cc(F)c(F)cc2[n+]1=O	TRUE
CCC1(OC(=O)CN)C(=O)OCc2c1cc1n(c2=O)Cc2cc3ccccc3nc2-1 (stereo not drawn)	TRUE
Cc1ccc2c(c1)C(=O)c1c-2c(OCCCN(C)C)nc2ccccc12	FALSE
Cn1nc(C(F)(F)F)c(-c2cc(C(F)(F)F)cc(C(F)(F)F)c2)c1-c1ccc(OCc2ccc(Cl)cc2)cc1O	FALSE
O=C(c1ccco1)c1c(C(F)(F)F)n([O-])c2cc(C(F)(F)F)ccc2[n+]1=O	TRUE

## Task What did this assay record as the result for "NC(N)=NC(N)=NCCCc1ccco1" ?
## Result FALSE

## Task What did the test return for "Cn1c(-c2ccccc2)c(/C=C/C2=[N+](C)c3ccccc3C2(C)C)c2ccccc21" ?
## Result FALSE

## Task Tell me the recorded outcome of this test for "O=C(Nc1ccc(F)cc1)Nc1ccc(Br)c(C(F)(F)F)c1" .
## Result FALSE

## Task What is the recorded call for this compound in the test? "Nc1nc2cc(CC[C@H]3C[C@@H](n4ccc5c(N)ncnc54)[C@H](O)[C@@H]3O)ccc2cc1Br"
## Result FALSE

## Task Hi, do you know how CC([C@H]1CC=C2C3CCC4=C[C@@H](N(C)C)CC[C@]4(C)C3CC[C@@]21C)N(C)C (stereo partly drawn) came out in this test?
## Result FALSE

###

# Test system: IGROV1 ovarian
# Procedure text: NCI tumour cell line growth inhibition, 48 h; in the data active = GI50 below about 0.43 µM; inactive = the rest
Respond only with the outcome that fits, drawn from active, inactive

Molecule	Assigned class
CCCCCCCCCCCCCC[n+]1ccc(C(N)=O)cc1	inactive
CCCCCCCC(=O)SCC/C=C/[C@@H]1CC(=O)NCc2nc(cs2)C2=N[C@@](C)(CS2)C(=O)N[C@@H](C(C)C)C(=O)N1	active
Cn1c(-c2ccccc2)c(/C=C/C2=[N+](C)c3ccccc3C2(C)C)c2ccccc21	inactive

## Task Hi, sorry to bother you, what did the test record for CC(C)=CC(=O)N[C@H]1CC[C@]2(C)C3CC[C@]4(C)C(C(C)N(C)C)=CCC4C3CCC2[C@H]1O (stereo not given in full) ?
## Result inactive

## Task In this assay, the call recorded for "CCCCCC[C@@H](C)NC(=O)c1ccc(Nc2nc3ccccc3c3occc23)cc1" was what?
## Result inactive

###

# System: SNB-19 CNS
# Procedure text: NCI tumour cell line growth inhibition, 48 h
Quantity: TGI

Illustrative cases are given below, each with its answer.
Compound	Test target	TGI
CCCCCCCCCCCCCCCCCCNC(=S)/N=C/c1c(O)c2ccccc2[nH]c1=O	SNB-19 CNS	36.3 µM
CCOC(=O)C(=CNC(=S)N=Nc1c(O)[nH]c2ccccc12)C(=O)OCC	SNB-19 CNS	> 100 µM
COc1ccc(NC(=O)c2sc3nc(C)c(C(=O)/C=C/c4cccc(OC)c4)cc3c2N)cc1	SNB-19 CNS	6.73 µM

# return TGI for each item in the list
1. CCCCc1ccc(Nc2nc(Cl)c3c(ncn3C3CC(Oc4ccc(C)cc4)C(COc4ccc(C)cc4)O3)n2)cc1 (stereo not given)
2. Cc1[nH]c(N)nc(=S)c1CCC(=O)O
3. COc1cc(OC)c(OC)cc1/C=C/c1cnnc2ccccc12
4. Cc1cc(C)c(C(=O)O)c(SSc2cc(C)cc(C)c2C(=O)O)c1
5. Cc1ccc(S(=O)(=O)OC(COC(=O)c2ccccc2)C(OS(=O)(=O)c2ccc(C)cc2)C(OS(=O)(=O)c2ccc(C)cc2)C(COC(=O)c2ccccc2)OS(=O)(=O)c2ccc(C)cc2)cc1 (stereo not given)
6. COC1CCC(OC)C(C2(C3CC(OC)CCC3OC)OC(=O)c3ccccc32)C1 (stereo not given)
7. O=C1CNC(=O)c2[nH]cnc2N1

## Result
> 100 µM
> 100 µM
> 10 µM
> 100 µM
> 100 µM
> 100 µM
> 100 µM

The values you see were collected from PubChem BioAssay (NCI).
